# testedSystem: T1, CD27 expressed on the cell surface of HT1080_CD27 cells (human, UniProt P26842 20-260); note: test concentration or dose not given here
# T1 sequence (looked up): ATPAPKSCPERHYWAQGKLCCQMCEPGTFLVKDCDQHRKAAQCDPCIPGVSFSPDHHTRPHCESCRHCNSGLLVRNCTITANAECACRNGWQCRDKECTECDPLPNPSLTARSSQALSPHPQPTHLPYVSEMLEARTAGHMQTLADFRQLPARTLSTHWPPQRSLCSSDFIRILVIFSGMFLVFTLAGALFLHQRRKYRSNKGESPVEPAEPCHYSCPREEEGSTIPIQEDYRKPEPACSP
# testSummary: cell-based or functional assay
readout: Functional assay Cross-linked by F(ab′)2 fragment IL-8 (abs. corr.)
# number only, unit abs. corr. dropped from output

{"binder": "P018.S.09.A.F05 (antibody, V domains shown, V regions on human Ig constant parts; also called AB27_157) VH: QEQLEESGGDLVKPGASLTLTCTASGFSFSSNYCMCWVRQAPGKGLEWIACICAGASGATYYASWAKGRFTVSKTSSTTVTLQMTSLTGADTATYFCARYDNSGWGDFKLWGPGTLVTVSS VL: DIVMTQTPASVSEPVGGTVTINCQASQNIGTYLAWYQQKPGQRPKLLIYAASYLASGVPSRFKGSGSGTEVALTISDLESADAATYYCQNTYYDSPVVGGAFGGGTEVVVK", "result": 1.68}
{"binder": "P018.S.09.A.G06 (antibody, V domains shown, V regions on human Ig constant parts; also called AB27_159) VH: QSVEESGGRLVTPGTPLTLTCTASGFSLSNYHMSWVRQAPGKGLEWIGIIYAGSDSTWYASWAKGRFTISKTSTTVDLKITSPTTEDTATYFCARQPGGGASDTQLDLWGQGTLVTVSS VL: AAVLTQTASPVSAAVGGTVTINCQSSQNIFDNNQLSWFQHKSGQSPKLLIYRASTLASGVPSRFKGSGSGTQFTLTISDVQSDDAATYYCLGGYSSSSDTVFGGGTEVVVK", "result": 1.34}

State the recorded Functional assay Cross-linked by F(ab′)2 fragment IL-8 for this entry: P018.S.03.A.D05 (antibody, V domains shown, V regions on human Ig constant parts; also called AB27_50) VH: QSLEESGGRLVTPGTPLTLTCTASGFSLSSYYITWVRQAPGEGLEWIGTISTAGNTYFASWANGRFTISRTSTTVDLKMTSPTTEDTATYFCARDGAGDSNYYRNLWGQGTLVTVSS VL: DIVLTQTPASVEAAVGGTVTIKCQASQSIDRFLAWYQQKPGQPPKLLIYDASDLASGVPSRFSGSGYGTEFTLTISGVQSEDAATYYCQQGYYISDIHNVFGGGTEVVVK
1.5
